Species: Rattus norvegicus
Assay: Open TG-GATES - Regimen: Daily Repeat
Type: toxicity, organism-based, Sprague-Dawley
Design: regimen Daily Repeat, gender Male, age 6 weeks
Conditions: in vivo, po, 300 mg/kg, […], tissue Plasma, route gavage, dose level Middle, time 28 day
ASSAY METRIC: Na (meq/L)
Unit meq/L implied. Number only.

{"COMPOUND": "COc1ccc2[nH]c([S+]([O-])Cc3ncc(C)c(OC)c3C)nc2c1 (stereo not given) [OMEPRAZOLE]", "ASSAY METRIC": "Na", "UNIT INFO": "meq/L", "READING": 141.6}
{"COMPOUND": "NC(N)=Nc1nc(CSCCC(N)=NS(N)(=O)=O)cs1 [FAMOTIDINE]", "ASSAY METRIC": "Na", "UNIT INFO": "meq/L", "READING": 141}
{"COMPOUND": "COC1=CC(=O)C[C@@H](C)[C@]12Oc1c(Cl)c(OC)cc(OC)c1C2=O [GRISEOFULVIN]", "ASSAY METRIC": "Na", "UNIT INFO": "meq/L", "READING": 140.6}
{"COMPOUND": "CCOC(=O)CCC(=O)O[C@H]1[C@H](O[C@@H]2[C@@H](C)[C@H](O[C@H]3C[C@@](C)(OC)[C@@H](O)[C@H](C)O3)[C@@H](C)C(=O)O[C@H](CC)[C@@](C)(O)[C@H](O)[C@@H](C)C(=O)[C@H](C)C[C@@]2(C)O)O[C@H](C)C[C@@H]1N(C)C [ERYTHROMYCIN ETHYLSUCCINATE]", "ASSAY METRIC": "Na", "UNIT INFO": "meq/L", "READING": 141.4}

Alright, here's another compound for you.
Identify the reported Na for the following entry. CCOc1ccc(NC(=O)CC(C)O)cc1 (stereo not given) [BUCETIN]
145.4

###

Species on record: Rattus norvegicus
Assay: Open TG-GATES - Regimen: Single
Format: toxicity, organism-based, Sprague-Dawley
Parameters: regimen Single, gender Male, age 6 weeks
Conditions: in vivo, po, 100 mg/kg, 9 h, tissue Kidney, route gavage, dose level Low
ASSAY METRIC: KIDNEY_R (g)
Unit g implied. Number only.

Would you please look over these solved cases?
{"COMPOUND": "COC1=CC(=O)C[C@@H](C)[C@]12Oc1c(Cl)c(OC)cc(OC)c1C2=O [GRISEOFULVIN]", "READING": 0.9}
{"COMPOUND": "NC(N)=Nc1nc(CSCCC(N)=NS(N)(=O)=O)cs1 [FAMOTIDINE]", "READING": 1}
{"COMPOUND": "CCOC(=O)CCC(=O)O[C@H]1[C@H](O[C@@H]2[C@@H](C)[C@H](O[C@H]3C[C@@](C)(OC)[C@@H](O)[C@H](C)O3)[C@@H](C)C(=O)O[C@H](CC)[C@@](C)(O)[C@H](O)[C@@H](C)C(=O)[C@H](C)C[C@@]2(C)O)O[C@H](C)C[C@@H]1N(C)C [ERYTHROMYCIN ETHYLSUCCINATE]", "READING": 1.1}

Alright, here's another compound for you.
Identify the reported KIDNEY_R for the following entry. COc1ccc2[nH]c([S+]([O-])Cc3ncc(C)c(OC)c3C)nc2c1 (centres undefined) [OMEPRAZOLE]
1

###

Species on record: Rattus norvegicus
Experiment: Open TG-GATES - Regimen: Daily Repeat
Format: toxicity, organism-based, Sprague-Dawley
Parameters: regimen Daily Repeat, gender Male, age 6 weeks
Conditions: in vivo, po, 1000 mg/kg, […], tissue Plasma, route gavage, dose level High, time 14 day
Below, each entry is listed with its recorded K.
The answer consists of two parts: a number and, after it, its unit.

Would you please look over these solved cases?
{"COMPOUND": "COC1=CC(=O)C[C@@H](C)[C@]12Oc1c(Cl)c(OC)cc(OC)c1C2=O [GRISEOFULVIN]", "K": "4.2 meq/L"}
{"COMPOUND": "CC(C)OC(=O)C(C)(C)Oc1ccc(C(=O)c2ccc(Cl)cc2)cc1 [FENOFIBRATE]", "K": "4.1 meq/L"}
{"COMPOUND": "COc1ccc2[nH]c([S+]([O-])Cc3ncc(C)c(OC)c3C)nc2c1 (stereo not given) [OMEPRAZOLE]", "K": "3.9 meq/L"}
{"COMPOUND": "CCOc1ccc(NC(=O)CC(C)O)cc1 (stereo not given) [BUCETIN]", "K": "4.4 meq/L"}

Alright, here's another compound for you.
Identify the reported K for the following entry. CCOC(=O)CCC(=O)O[C@H]1[C@H](O[C@@H]2[C@@H](C)[C@H](O[C@H]3C[C@@](C)(OC)[C@@H](O)[C@H](C)O3)[C@@H](C)C(=O)O[C@H](CC)[C@@](C)(O)[C@H](O)[C@@H](C)C(=O)[C@H](C)C[C@@]2(C)O)O[C@H](C)C[C@@H]1N(C)C [ERYTHROMYCIN ETHYLSUCCINATE]
4.4 meq/L

###

Species on record: Rattus norvegicus
Test: Open TG-GATES - Regimen: Single
Assay type: toxicity, organism-based, Sprague-Dawley
Set-up: regimen Single, gender Male, age 6 weeks
Conditions: in vivo, po, 300 mg/kg, 24 h, tissue Plasma, route gavage, dose level Middle
ASSAY METRIC: PL (mg/dL)
Unit mg/dL implied. Number only.

{"MOLECULE": "NC(N)=Nc1nc(CSCCC(N)=NS(N)(=O)=O)cs1", "UNIT INFO": "mg/dL", "PL": 153}
{"MOLECULE": "CCOC(=O)CCC(=O)O[C@H]1[C@H](O[C@@H]2[C@@H](C)[C@H](O[C@H]3C[C@@](C)(OC)[C@@H](O)[C@H](C)O3)[C@@H](C)C(=O)O[C@H](CC)[C@@](C)(O)[C@H](O)[C@@H](C)C(=O)[C@H](C)C[C@@]2(C)O)O[C@H](C)C[C@@H]1N(C)C [ERYTHROMYCIN ETHYLSUCCINATE]", "UNIT INFO": "mg/dL", "PL": 135.2}

Identify the reported PL for the following entry. COC1=CC(=O)C[C@@H](C)[C@]12Oc1c(Cl)c(OC)cc(OC)c1C2=O
144.6

Identify the reported PL for the following entry. COc1ccc2[nH]c([S+]([O-])Cc3ncc(C)c(OC)c3C)nc2c1 (centres undefined)
146.4

###

Species: Rattus norvegicus
Test: Open TG-GATES - Regimen: Single
Format: toxicity, organism-based, Sprague-Dawley
Set-up: regimen Single, gender Male, age 6 weeks
Conditions: in vivo, po, 10 mg/kg, 24 h, tissue Blood, route gavage, dose level Low
Below, each entry is listed with its recorded Lym.
Unit % implied. Number only.

Would you please look over these solved cases?
{"MOL": "CN(C)CCCN1c2ccccc2CCc2ccc(Cl)cc21", "UNIT INFO": "%", "Lym": 77}
{"MOL": "CN(C)CCCN1c2ccccc2CCc2ccccc21", "UNIT INFO": "%", "Lym": 81}
{"MOL": "CN(C)CCN(Cc1cccs1)c1ccccn1", "UNIT INFO": "%", "Lym": 80.5}

Identify the reported Lym for the following entry. CC1=C(/C=C/C(C)=C/C=C/C(C)=C/CO)C(C)(C)CCC1
80.2

###

Below, each entry is listed with its recorded Na.
Organism: Rattus norvegicus
Experiment: Open TG-GATES - Regimen: Daily Repeat
Type: toxicity, organism-based, Sprague-Dawley
Set-up: regimen Daily Repeat, gender Male, age 6 weeks
Details: in vivo, po, 0 mg/kg, […], tissue Plasma, route gavage, dose level Control, time 28 day

{"COMPOUND": "NC(N)=Nc1nc(CSCCC(N)=NS(N)(=O)=O)cs1 [FAMOTIDINE]", "ASSAY METRIC": "Na", "READING": "141 meq/L"}
{"COMPOUND": "CCOc1ccc(NC(=O)CC(C)O)cc1 (centres undefined) [BUCETIN]", "ASSAY METRIC": "Na", "READING": "145.4 meq/L"}
{"COMPOUND": "CN(C)CCN(Cc1cccs1)c1ccccn1", "ASSAY METRIC": "Na", "READING": "143.2 meq/L"}

Identify the reported Na for the following entry. NNC(=O)c1ccncc1 [ISONIAZID]
142.2 meq/L

###

Species on record: Rattus norvegicus
Experiment: Open TG-GATES - Regimen: Single
Format: toxicity, organism-based, Sprague-Dawley
Design: regimen Single, gender Male, age 6 weeks
Conditions: in vivo, po, 0 mg/kg, 9 h, tissue Plasma, route gavage, dose level Control
ASSAY METRIC: IP

{"MOLECULE": "CN(C)CCCN1c2ccccc2CCc2ccccc21", "IP": "9.9 mg/dL"}
{"MOLECULE": "CCOC(=O)CCC(=O)O[C@H]1[C@H](O[C@@H]2[C@@H](C)[C@H](O[C@H]3C[C@@](C)(OC)[C@@H](O)[C@H](C)O3)[C@@H](C)C(=O)O[C@H](CC)[C@@](C)(O)[C@H](O)[C@@H](C)C(=O)[C@H](C)C[C@@]2(C)O)O[C@H](C)C[C@@H]1N(C)C [ERYTHROMYCIN ETHYLSUCCINATE]", "IP": "9.1 mg/dL"}
{"MOLECULE": "O=C(CCCN1CCC(O)(c2ccc(Cl)cc2)CC1)c1ccc(F)cc1", "IP": "10.8 mg/dL"}
{"MOLECULE": "COC1=CC(=O)C[C@@H](C)[C@]12Oc1c(Cl)c(OC)cc(OC)c1C2=O", "IP": "10.1 mg/dL"}
{"MOLECULE": "CC(C)OC(=O)C(C)(C)Oc1ccc(C(=O)c2ccc(Cl)cc2)cc1 [FENOFIBRATE]", "IP": "9.5 mg/dL"}
{"MOLECULE": "NC(N)=Nc1nc(CSCCC(N)=NS(N)(=O)=O)cs1", "IP": "9.4 mg/dL"}

Identify the reported IP for the following entry. COc1cc2c(c(OC)c1OC)-c1ccc(OC)c(=O)cc1[C@@H](NC(C)=O)CC2
9.9 mg/dL
